Origin of values: patent US20250340591A1

So I've got a bunch of binders here, and I need their EC50; SRE-luciferase reporter values.
tgt: T1, GPR39 (G protein coupled receptor 39) (UniProt O43194 1-453, limits assumed)
T1 sequence (looked up): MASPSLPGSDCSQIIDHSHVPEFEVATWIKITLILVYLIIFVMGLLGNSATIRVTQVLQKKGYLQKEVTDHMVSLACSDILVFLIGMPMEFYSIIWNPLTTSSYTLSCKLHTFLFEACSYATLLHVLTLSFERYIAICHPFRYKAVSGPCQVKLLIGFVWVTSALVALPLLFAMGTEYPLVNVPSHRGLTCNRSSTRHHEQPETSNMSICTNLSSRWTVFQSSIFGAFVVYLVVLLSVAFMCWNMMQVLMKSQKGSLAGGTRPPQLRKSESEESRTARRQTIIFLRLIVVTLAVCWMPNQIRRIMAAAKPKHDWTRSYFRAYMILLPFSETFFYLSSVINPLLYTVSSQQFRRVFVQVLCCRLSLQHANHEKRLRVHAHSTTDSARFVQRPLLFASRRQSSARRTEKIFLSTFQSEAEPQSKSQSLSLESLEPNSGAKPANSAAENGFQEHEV
assay-summary: cell-based or functional assay
Square brackets hold non-standard residues; d marks the D form. Ends that are not written are not given here. * marks the point of attachment. thiophene = 2-(thiophen-2-yl) substituent on the histidine imidazole (2-(thiophen-2-yl)-1H-imidazol-4-yl), c1csc(*)c1; Biotin = O=C1N[C@H]2[C@H](CS[C@H]2CCCCC(=O)*)N1; dPhe(4-Me) = Cc1ccc(C[C@@H](N)C(=O)O)cc1; Trt = c1ccc(C(c2ccccc2)(c2ccccc2)*)cc1; Tos = Cc1ccc(S(=O)(=O)*)cc1; Octanoyl = CCCCCCCC(=O)*
Give a bare numeral; the unit nM is implied.

*Q* Need EC50; SRE-luciferase reporter, item HK(Octanoyl)FY (not fully specified; also: His1 substituent: adamantan-1-yl or adamantanmethyl) [HKFY-23]
*A* 2600

*Q* Look up EC50; SRE-luciferase reporter: H(Trt)K(Octanoyl)FYSHQQARF (not fully specified; printed as His(trt)-Lys(caprylic)-Phe-Tyr-Ser-His-Gln-Gln-Ala-Arg-Phe) [HKFY-40]
*A* 1300

*Q* // returns reported EC50; SRE-luciferase reporter for input H(thiophene)K(Octanoyl)[dPhe(4-Me)]Y-OH [HKFY-63]
*A* 6

*Q* So what does the record say about EC50; SRE-luciferase reporter for H(Tos)K(Octanoyl)[dPhe(4-Me)]Y-OH [HKFY-75] ?
*A* 1

*Q* Field request: EC50; SRE-luciferase reporter | item: Biotin-H(Trt)K(Octanoyl)FY [HKFY-2]
*A* 140
